Data provenance: ChEMBL document CHEMBL1201862

system: HCT-116; assay: NCI tumour cell line growth inhibition, 48 h
The source made the active and inactive calls. No stated cut-off is given here; in the data, active = GI50 up to about 1.1 µM and inactive = higher.
Respond only with the outcome that fits, drawn from active, inactive

[in] Entry CCOC(=O)CNC1C(NC(C)=O)C(OC)OC2COC(c3ccccc3)OC21 (stereo unspecified) : call = ?
[out] inactive

[in] Entry C=CCCCCCCCCC(=O)NS(=O)(=O)c1ccccc1 : call = ?
[out] inactive

[in] Entry CSc1cc(-c2cccs2)sc1-c1cc(SC)c(-c2sc(-c3sc(-c4cccs4)cc3SC)cc2SC)s1 : call = ?
[out] inactive

[in] Entry O=C(COc1ccc(OCC(=O)N/N=C/c2ccc(-c3ccc(Cl)cc3Cl)o2)c(Cl)c1)N/N=C/c1ccc(-c2ccc(Cl)cc2Cl)o1 : call = ?
[out] inactive

[in] Entry Cc1ccc(C(=O)NCc2ccccc2)cc1/N=N/N(C)C : call = ?
[out] inactive

[in] Entry C=CCOC(=O)C1CCC(=O)N1C(=O)C(Cl)Cl (stereo unspecified) : call = ?
[out] inactive

[in] Entry C=CCc1cc(OC)c2c(c1)C(OC)CC(c1ccc(OC)c(OC)c1)O2 (stereo unspecified) : call = ?
[out] inactive

[in] Entry CCOC(=O)c1ccc(N(C)Cc2cnc3nc(N)nc(N)c3n2)cc1 : call = ?
[out] inactive

[in] Entry O=C1C(Cl)=C(c2ccc([N+](=O)[O-])cc2)C(=O)c2c(O)cccc21 : call = ?
[out] active

[in] Entry Cc1cc2c(cc1N)C(C)C1(CCC(=O)N2Cc2ccccc2)OCCO1 (stereo unspecified) : call = ?
[out] inactive

[in] Entry Cc1cc(S(=O)(=O)NC2=NCCCN2)c(S)cc1Cl : call = ?
[out] inactive

[in] Entry COc1ccc2c(c1)C1(C=N2)CCN(C(C)=O)CC1 : call = ?
[out] inactive

[in] Entry Nc1ccc(C(=O)NN2C(=O)[C@H](Cl)C2c2ccc(Cl)cc2)cc1 (stereo partly specified) : call = ?
[out] active

[in] Entry COc1ccc(NCc2c(O)ccc3ccccc23)cc1 : call = ?
[out] inactive

[in] Entry O=C(/C=C1\Sc2ccccc2N=C1CC(=O)c1ccccc1)c1ccccc1 : call = ?
[out] inactive

[in] Entry COc1ccc(OC)c(C(Cc2ccnc3ccccc23)Cc2ccnc3ccccc23)c1 : call = ?
[out] active

[in] Entry O=S(=O)(Oc1ccc2oc3ccccc3c2c1-c1c(OS(=O)(=O)C(F)(F)F)ccc2oc3ccccc3c12)C(F)(F)F : call = ?
[out] inactive

[in] Entry COC1N(C2CC(O)C(CO)O2)C(=O)NC(=O)C1(F)Br (stereo unspecified) : call = ?
[out] inactive

[in] Entry Clc1cc(N/N=C(/c2ccccc2)c2ncccn2)ncn1 : call = ?
[out] inactive

[in] Entry CSC1=C(C(=O)Nc2ccc(Cl)cc2)C(N)=NC1=O : call = ?
[out] inactive

[in] Entry CC(=O)NNc1nc(C)c(C(=O)NNC(=O)C(=O)Nc2ccc(C)cc2[N+](=O)[O-])s1 : call = ?
[out] inactive

----------
system: NCI-H522; assay: NCI tumour cell line growth inhibition, 48 h
The source made the active and inactive calls. No stated cut-off is given here; in the data, active = GI50 up to about 1.1 µM and inactive = higher.
metric_name: GI50

[in] Quick one: GI50 of CC(C)=CCC/C(C)=C/CCC(C(=O)COCc1ccccc1)P1(=O)OC(C)(C)CN1C(C)(C)C (centres undefined) ?
[out] 32.6 µM (inactive)

[in] Quick one: GI50 of S=c1sc2c(Cl)nc(Cl)nc2n1-c1ccccc1 ?
[out] 11.5 µM (inactive)

[in] Quick one: GI50 of COc1cc(C2(c3ncc[nH]3)SSSCC2O)ccc1O (centres undefined) ?
[out] 29.4 µM (inactive)

[in] Quick one: GI50 of OCCCCOC(c1ccccc1)(c1ccccc1)c1ccccc1 ?
[out] > 100 µM (inactive)

----------
Exercise: state measured GI50 for each of the compounds provided.
system: HOP-62; experiment: NCI tumour cell line growth inhibition, 48 h
The source made the active and inactive calls. Rule as the data show it: active = GI50 up to about 1.1 µM and inactive = higher.

[in] Quick one: GI50 of O=C1C(NS(=O)(=O)c2ccccc2)=C(n2cnc3ccccc32)C(=O)c2ccccc21 ?
[out] 32.4 µM (inactive)

[in] Quick one: GI50 of Fc1ccc(C(OCCN2CCC3CCC(C2)N3Cc2cc3ccccc3[nH]2)c2ccc(F)cc2)cc1 (configuration not stated) ?
[out] 2.05 µM (inactive)

[in] Quick one: GI50 of CC(C)=CCCC(C)C1=C(O)C(=O)C(C)=CC1=O (configuration not stated) ?
[out] 18.9 µM (inactive)

[in] Quick one: GI50 of Clc1nc(Cl)nc(Nc2cccc3ccccc23)n1 ?
[out] > 10 µM (inactive)

[in] Quick one: GI50 of O=C1OC(O)C(Oc2c(Cl)cccc2Cl)=C1Cl (configuration not stated) ?
[out] 17.7 µM (inactive)

[in] Quick one: GI50 of CC(C)C(NCc1c(O)ccc2c(-c3ccccc3)cc(=O)oc12)C(=O)O (configuration not stated) ?
[out] > 100 µM (inactive)

[in] Quick one: GI50 of S=c1sc2nc(Cl)nc(Cl)c2s1 ?
[out] 19.9 µM (inactive)

----------
Exercise: state measured GI50 for each of the compounds provided.
test system: HOP-62; assay: NCI tumour cell line growth inhibition, 48 h
Active and inactive are the calls of the source. Cut-off read from the data, not from the text of the source: active = GI50 up to about 1.1 µM and inactive = higher.

[in] Give the reported GI50 for C=C1C(=O)OC2/C=C(\CO)C3OC3C3OC3(C)CC(OC(=O)/C(=C/C)COC(C)=O)C12 (stereo not drawn) (system: HOP-62).
[out] 21.6 µM (inactive)

[in] Give the reported GI50 for CC(=O)Nc1ccc(NCC(=O)Nn2cnc3ccc(S(=O)(=O)Nc4ccc(NC(C)=O)cc4)cc3c2=O)cc1 (system: HOP-62).
[out] > 100 µM (inactive)

[in] Give the reported GI50 for CC(C)(C)OC(=O)N1CCC(C(=O)O)CC1 (system: HOP-62).
[out] > 100 µM (inactive)

[in] Give the reported GI50 for O=[N+]([O-])c1ccc2nc(Nc3ccccc3)c(Nc3ccccc3)nc2c1 (system: HOP-62).
[out] 1.19 µM (inactive)

[in] Give the reported GI50 for CC(C)COC(=O)N1N=NC2C3OC(CC3=O)C21 (stereo not drawn) (system: HOP-62).
[out] > 100 µM (inactive)

[in] Give the reported GI50 for CC1OC(OC2C(O[C@@H]3C[C@@H]4CC[C@@H]5[C@H](CC[C@]6(C)C7C(C[C@@H]56)O[C@]5(CC[C@@H](C)CO5)[C@H]7C)[C@@]4(C)C[C@H]3O)OC(CO)C(O)C2O)C(O)C(O)C1O (stereo partly drawn) (system: HOP-62).
[out] 2 µM (inactive)

[in] Give the reported GI50 for CCOC(=O)N/N=C/C1=NN(C(=O)OCC)[S+]([O-])C1C (stereo not drawn) (system: HOP-62).
[out] > 100 µM (inactive)

[in] Give the reported GI50 for Cc1ccc2c(c1)OC1Nc3ccccc3C1=C2O (stereo not drawn) (system: HOP-62).
[out] 27.4 µM (inactive)

[in] Give the reported GI50 for COc1ccc(C=O)c([N+](=O)[O-])c1 (system: HOP-62).
[out] 40.7 µM (inactive)

[in] Give the reported GI50 for COc1ccc(C(=O)Cc2ccc(Cl)cc2)cc1OC (system: HOP-62).
[out] > 100 µM (inactive)

[in] Give the reported GI50 for N#CCCN(CCC#N)c1ccc(/C=C2\N=C(c3ccccc3)N(c3ccc(Cl)cc3)C2=O)cc1 (system: HOP-62).
[out] > 100 µM (inactive)

[in] Give the reported GI50 for c1ccc(-c2cn3c(nc4ccccc43)c(-c3ccccc3)n2)cc1 (system: HOP-62).
[out] 7.13 µM (inactive)

[in] Give the reported GI50 for COc1cc(C2(c3ncc[nH]3)SSSCC2O)ccc1O (stereo not drawn) (system: HOP-62).
[out] > 66.4 µM (inactive)

----------
Exercise: state measured GI50 for each of the molecules provided.
tested on: SK-OV-3; assay: NCI tumour cell line growth inhibition, 48 h
Calls of active or inactive are those of the source. No stated cut-off is given here; in the data, active = GI50 up to about 1.1 µM and inactive = higher.

[in] Quick one: GI50 of CC[N+](C)(CC)CCNC(=O)C(O)(c1ccccc1)c1ccccc1 ?
[out] > 100 µM (inactive)

[in] Quick one: GI50 of CC(=O)C1C(=O)C(=O)N(c2ccccc2)C1=O (stereo not drawn) ?
[out] > 100 µM (inactive)

[in] Quick one: GI50 of CC1(C)COC(/C=C/C2=NC(C)(C)CO2)=N1 ?
[out] > 100 µM (inactive)

[in] Quick one: GI50 of O=C(NC12CC3CC(CC(C3)C1)C2)C(=O)c1c[nH]c2ccc([N+](=O)[O-])cc12 ?
[out] 76.6 µM (inactive)

[in] Quick one: GI50 of CCOC(=O)C1(Cc2ccccc2)CCCCCN1 (stereo not drawn) ?
[out] > 100 µM (inactive)

[in] Quick one: GI50 of Cc1cc(N)c2ccccc2[n+]1CCCCCCCCCC[n+]1c(C)cc(N)c2ccccc21 [DEQUALINIUM CHLORIDE] ?
[out] 2.39 µM (inactive)

[in] Quick one: GI50 of CC(C)=C1CCC(CN2CCOCC2)C1=O (stereo not drawn) ?
[out] > 100 µM (inactive)

[in] Quick one: GI50 of O=[N+]([O-])c1ccc(/C=N/n2c(S)nnc2CCc2nnc(S)n2/N=C/c2ccc([N+](=O)[O-])o2)o1 ?
[out] > 100 µM (inactive)
